Experiment: qHTS Assay for Lipid Storage Modulators in Drosophila S3 Cells;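 note: cells counted by Cell Tracker Red CMTPX staining in the red channel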
Settings: BODIPY lipid droplet fluorescence, 18-24 h, cells fed with added oleic acid; measured here: cell count max response
Description: NIH Molecular Libraries Probe Production Centers Network [MLPCN] NIH Chemical Genomics Center [NCGC] […] Triacsin C (Sigma-Aldrich T-4540), an inhibitor of long-chain fatty acyl CoA synthetase that blocks synthesis of triglycerides, was used as a positive control for lipid under-storage. […] Fluorescence was detected by excitation of the fluorophores with a 488-nm laser on an Acumen Explorer (TTP Lab Tech). […] Cells were detected using channel 3 (575-640 nm) with 5-um width and 100-um depth filters. […]
In all, about 320,000 compounds went through this assay and about 2,100 (0.66%) were called active. About 53% were inconclusive and are not listed. The sample as a whole holds a higher share of actives than the screen did.
readout type: cell number change

Here's what some known entries look like.
O=C(NCc1ccc(Cl)cc1)N1CCN(S(=O)(=O)c2ccccc2)CC1
17.1%
CCC1(C)CC(CC(=O)O)(c2ccccc2OC)CCO1 (configuration not stated)
-13.5%
Cc1ccc(NC(=O)NCc2cccn2C)cc1C
7.96%
COc1ccc2c(c1)C(=O)N1[C@H]3c4cc(C)ccc4OC[C@@H]3[C@H](c3ccccc3)[C@]1(C)C(=O)N2
11.4%
Cc1c(C(=O)NCc2ccc(F)cc2)oc2ccc(S(=O)(=O)N3CCOCC3)cc12
-3.6%

For the 6 compounds below, give their cell number change values.
1. O=Cc1c(Cl)nc2ccccn12
2. COc1ccccc1CNC(=O)[C@@H]1CCCN1S(=O)(=O)c1ccc(Cl)cc1
3. COc1cccc(NC(=O)c2oc3ccc(S(=O)(=O)N4CCOCC4)cc3c2C)c1
4. COc1ccc(/C=N/NC(=O)CCn2nc(C)cc2C)cc1
5. Cc1nc(N2CCN(c3ccccc3O)CC2)c2c(-c3ccccc3)csc2n1
6. CCOC(=O)[C@H]1[C@H]2COc3ccccc3[C@@H]2N2C(=O)c3ccc(Cl)cc3NC(=O)[C@@]12C

Result:
-2.46%
-7.14%
4.15%
9.01%
-4.5%
-18.8%

###

Assay: qHTS Assay for Lipid Storage Modulators in Drosophila S3 Cells;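 note: cells counted by Cell Tracker Red CMTPX staining in the red channel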
Details: BODIPY lipid droplet fluorescence, 18-24 h, cells fed with added oleic acid; measured here: cell count max response
Out of some 320,000 compounds screened, about 2,100 (0.66%) were called active. Not shown: some 53% with an inconclusive outcome. Many of the other results were omitted from the sample, so actives are more common in it than they were.
readout type: cell number change (%)
One number for each entry, in %.

Here's what some known entries look like.
CC(Sc1ccccc1)C(=O)N1CCN(S(=O)(=O)c2ccccc2F)CC1 (stereo not given)
-14.5
CCN1C(=O)[C@@H]2[C@@H](c3ccc(-c4ccccc4)cc3)N3CCCC[C@@]3(C(=O)OC)[C@@H]2C1=O
15.8
COc1ccccc1C1C(C#N)=C(N)N(c2cccnc2)C2=C1C(=O)CC(C)(C)C2 (stereo not given)
-3.09
CCN1C(=O)[C@@H]2[C@@H](c3ccc(-c4ccc5c(c4)OCO5)c(OC)c3)N3CCC[C@@]3(C(=O)OC)[C@@H]2C1=O
-1.65
CCOc1cc(/C=C(\C#N)c2nc3ccccc3[nH]2)ccc1OC(C)C(=O)O (stereo not given)
5.37

For the 5 compounds below, give their cell number change values.
1. COc1ccc(CN2CC(C(=O)NCC3CCCO3)CC2=O)cc1 (stereo not given)
2. COCCn1c(SCC(=O)c2c(N)n(C3CC3)c(=O)[nH]c2=O)nnc1-c1ccc(Cl)cc1
3. CCOC(=O)C1(Cc2cccc(OC)c2)CCN(Cc2cc(OC)ccc2OC)CC1
4. O=C(O)c1ccccc1C(=O)NCCCn1ccnc1
5. C1=C(CCNc2ncnc3nc[nH]c23)CCCC1

Result:
14
-5.22
-22.3
7.04
-23.9
